Assay: clinical
Conditions: female, human, plasma, other: intranasal (IN), 8 mg, Tmax (median), Two 40 mg/mL IN; Female
READOUT_NAME: Tmax
A complete answer gives the number followed by the unit.

QUERY: Look at this compound and give its reported Tmax. C=CCN1CC[C@]23c4c5ccc(O)c4O[C@H]2C(=O)CC[C@@]3(O)[C@H]1C5 [naloxone]
RESULT: 17.4 min

====

Assay: clinical
Settings: human, plasma, other: intranasal, 4 mg, AUC0-∞, Mean, 4 mg IN
READOUT_NAME: AUC(0-inf)
Write the numeric value and follow it with the unit.

QUERY: Data request, read-out AUC(0-inf), for `C=CCN1CC[C@]23c4c5ccc(O)c4O[C@H]2C(=O)CC[C@@]3(O)[C@H]1C5`
RESULT: 5.68 ng·h/mL

Attribution: patent US20160008277A1
